meta.source: the supplement of paper PMC13380429

system: Vero E6; assay: relative viability EC50 (midpoint between 100% and the lowest measured viability); higher = less toxic; settings: 72 h
METRIC NAME: relative viability EC50

1. CCOC(=O)c1ccc(N(C)c2csc(-c3ccccc3)n2)cc1    > 10 µM
2. Cc1c(C)c(NCC(=O)N(C)C2CCN(Cc3ccc(C(N)=O)cc3)CC2)c(C)c(C)c1N    > 10 µM
3. O=C(O)CC[C@H]1CC[C@@](c2cc(F)ccc2F)(S(=O)(=O)c2ccc(Cl)cc2)CC1    > 10 µM
4. COC(=O)C1=C(C)NC(C)=C(C(=O)OCCN(C)Cc2ccccc2)C1c1cccc([N+](=O)[O-])c1 (stereo not given)    > 10 µM
5. O=C1OC2(c3ccc(O)cc3Oc3cc(O)ccc32)c2ccccc21    > 10 µM
6. COc1c(C)cnc(Cn2cnc3c(Cl)nc(N)nc32)c1C    0.633 µM
7. Cc1onc(-c2c(Cl)cccc2Cl)c1C(=O)N[C@@H]1C(=O)N2[C@@H]1SC(C)(C)[C@@H]2C(=O)O    > 10 µM
8. O=C(NCCCN1CCCCCC1)C(c1ccccc1)C1CCCCC1 (stereo not given)    > 10 µM
9. COc1cccc(Nc2ncnn3ccc(CN4CC[C@@H](N)[C@H](O)C4)c23)c1    0.292 µM
10. CN1[C@@H]2CC[C@H]1C[C@@H](OC(=O)c1c[nH]c3ccccc13)C2    > 10 µM

* * *

tested on: Vero E6; assay: cell viability relative to DMSO; higher = less toxic; conditions: 72 h; 10 nM
METRIC NAME: cell viability

1. CC(C)[C@H]1c2ccc(F)cc2CC[C@@]1(CCN(C)CCCc1nc2ccccc2[nH]1)OC(=O)C1CC1    96.1%
2. CN(C(=O)CN1C(=O)COc2cc(Cl)c(Cl)cc21)[C@@H](CN1CCCC1)c1ccc(-c2cccc(C(N)=O)c2)cc1    97%
3. O=C1N=C(NCc2cccs2)S/C1=C\c1ccc2ncccc2c1    97.4%
4. O=NO [sodium-nitrite]    113%
5. O[C@@H](C[C@H]1c2ccccc2-c2cncn21)C1CCCCC1    98.5%

* * *

tested on: HepG2; assay: cell viability relative to DMSO; higher = less toxic; settings: 72 h; 10000 nM
METRIC NAME: cell viability (%)

1) CC1CC(OC(=O)C(O)c2ccccc2)CC(C)(C)C1 (centres undefined) [cyclandelate]    98.3
2) CC12CCC(C(=O)N(CCCCN3CCN(c4ccccn4)CC3)C1=O)C2(C)C (centres undefined)    97.6
3) CC[C@@H](C(N)=O)N1CCCC1=O    92
4) COc1ccccc1OC(=O)c1ccccc1OC(C)=O    88.4
5) COc1ccc2c(C)nc(Nc3nc(C)c(C)c(O)n3)nc2c1    93.5
6) CCOC(=O)[C@@H](N)Cc1ccc(-c2cc(O[C@H](c3ccc(Cl)cc3-n3ccc(C)n3)C(F)(F)F)nc(N)n2)cc1    113
7) C[N+]1(C)CCC(=C(c2ccccc2)c2ccccc2)CC1    110
8) CC(C)(C(=O)NCC(F)(F)C(F)(F)F)C(=O)N[C@@H]1C(=O)Nc2ccccc2-c2ccccc21    92.1
9) C[C@@H]([C@H](O)c1ccc(O)cc1)N1CCC(Cc2ccccc2)CC1 (racemic)    88.2
10) Cn1cc(-c2ccncc2)c(-c2ccc(OCc3ccc4ccccc4n3)cc2)n1    91.5
11) Cc1ccc(OCCSc2ncccn2)c(Br)c1    110
12) CCN(CC)CCOCCOC(=O)C1(c2ccccc2)CCCC1    94.4
13) CCC(CO)(C(=O)OC1CC2CCC(C1)[N+]2(C)C)c1ccccc1 (centres undefined)    113
14) C[N+]12CCCCC1CCC(=C(c1cccs1)c1cccs1)C2 (centres undefined)    94
15) COc1cc2c(cc1OC)CN(C(=O)/C=C/c1c(-c3ccccc3)n(C)c3ncccc13)CC2    106
16) COc1cc2c(cc1F)C(c1ccccc1Cl)=Nc1c(n[nH]c1C)N2    77.6
17) COc1ccc2cccc(N3CCN(CCNC(=O)c4ccc(F)cc4)CC3)c2c1    89.5
18) CC(=O)NC[C@H]1CN(c2ccc(N3CCN(C(=O)CO)CC3)c(F)c2)C(=O)O1    81.1
19) CCOC(=O)c1ccc(N(C)c2csc(-c3ccccc3)n2)cc1    93.2

* * *

system: Vero E6; test: cell viability relative to DMSO; higher = less toxic; settings: 72 h; 10000 nM
Reported cell viability values for the following molecules.
METRIC NAME: cell viability (%)

1. Cc1nc(NC(=O)N2CCC[C@H]2C(N)=O)sc1-c1ccnc(C(C)(C)C(F)(F)F)c1 [alpelisib]    80.3
2. Clc1ccc2c(c1)CCc1cccnc1C2=C1CCNCC1 [desloratadine]    99.9
3. Cc1c2oc3c(C)ccc(C(=O)N[C@@H]4C(=O)N[C@H](C(C)C)C(=O)N5CCC[C@H]5C(=O)N(C)CC(=O)N(C)[C@@H](C(C)C)C(=O)O[C@@H]4C)c3nc-2c(C(=O)N[C@@H]2C(=O)N[C@H](C(C)C)C(=O)N3CCC[C@H]3C(=O)N(C)CC(=O)N(C)[C@@H](C(C)C)C(=O)O[C@@H]2C)c(N)c1=O [dactinomycin]    8.7
4. CCS(=O)(=O)Nc1ccc2c(c1)/C(=C(/Nc1ccc(CN3CCCCC3)cc1)c1ccccc1)C(=O)N2 [hesperadin]    16.9
5. CN1C(=O)C(Cc2c[nH]c3ccccc23)NC1=S (stereo unspecified) [necrostatin-1]    103
6. CC(C)(C)n1nc(-c2cccc3ccccc23)c2c(N)ncnc21 [1-naphthyl-PP1]    78.6
7. Cc1cc(Cn2nnc3c(-c4ccco4)nc(N)nc32)ccc1N [vipadenant]    88.7
8. COc1ccccc1OCCNCC(O)COc1cccc2[nH]c3ccccc3c12 (stereo unspecified) [carvedilol]    94.7
9. CC12CCC(C(=O)N(CCCCN3CCN(c4ccccn4)CC3)C1=O)C2(C)C (stereo unspecified) [piricapiron]    104
10. C[C@H](N[C@@H](CCc1ccccc1)C(=O)O)C(=O)N1CCC[C@H]1C(=O)O [enalaprilat]    107
11. CC(C)OC(=O)[C@H](C)N[P@@](=O)(OC[C@H]1O[C@@H](n2ccc(=O)[nH]c2=O)[C@](C)(F)[C@@H]1O)Oc1ccccc1 [PSI-7976]    108
12. COCCN(C(=O)c1cc(OC)c(OC)c(OC)c1)c1nc(-c2ccccc2)cs1 [eact]    97.5
13. Cc1c(C(=O)NN2CCCCC2)nn(-c2ccc(Cl)cc2Cl)c1-c1ccc(Cl)cc1 [rimonabant]    101
14. CO[C@H]1C[C@@H]2CC[C@@H](C)[C@@](O)(O2)C(=O)C(=O)N2CCCC[C@H]2C(=O)O[C@H]([C@H](C)C[C@@H]2CC[C@@H](O)[C@H](OC)C2)CC(=O)[C@H](C)/C=C(\C)[C@@H](O)[C@@H](OC)C(=O)[C@H](C)C[C@H](C)/C=C/C=C/C=C/1C [sirolimus]    60.6
15. CN1C(=O)CC[C@H]1c1cccnc1 [cotinine]    106
16. Cc1ccnc2c1NC(=O)c1cccnc1N2C1CC1 [nevirapine]    108

* * *

Reported cell viability values for the following compounds.
test system: Caco-2; experiment: cell viability relative to DMSO; higher = less toxic; conditions: 72 h; 100 nM
METRIC NAME: cell viability

1. C[C@@H]1NC(=O)[C@@H]2CCCN2C(=O)[C@H](CC(N)=O)NC(=O)[C@@H]2CSSC[C@H](N)C(=O)N[C@H]3CSSC[C@H](NC1=O)C(=O)N[C@@H]([C@@H](C)O)C(=O)NCC(=O)N[C@H](C(=O)N[C@@H](Cc1ccc(O)cc1)C(=O)O)CSSC[C@H](NC(=O)[C@H](Cc1ccc(O)cc1)NC(=O)[C@H](CCC(=O)O)NC3=O)C(=O)N2 [linaclotide]    104%
2. CC1(C)CC(Oc2ccc(-c3ccc(-c4cn[nH]c4)cc3O)nn2)CC(C)(C)N1    106%
3. N#Cc1cccc(C(=O)Nc2cc(-c3ccccc3)nn2-c2ccccc2)c1    108%

* * *

Reported cell viability values for the following compounds.
tested on: Caco-2; assay: cell viability relative to DMSO; higher = less toxic; conditions: 72 h; 1000 nM
METRIC NAME: cell viability (%)

1. C#CCOC(=O)C1=CCCN(C)C1 [arecaidine-propargyl-ester]    98
2. CCOc1cc(C(=O)Nc2ccc(Cl)c(-c3nc4ccccc4[nH]3)c2)cc(OCC)c1OCC [SANT-2]    91.6
3. O=C(CCN1CCN(C(=O)OCc2cc(Cl)cc(Cl)c2)CC1)c1ccc2[nH]c(=O)oc2c1 [PF-8380]    98.1
4. C=C1C(=O)O[C@@H]2[C@H]3C(C)=CC[C@@]34O[C@@]4(C)CC[C@@H]12 [arglabin]    104
